# target.of.assay: T1, Recombinant cynomolgus monkey sgM-CSF (cynomolgus (Macaca fascicularis), UniProt P09603 33-255 (human entry), limits assumed)
# T1 construct: used also where only 'cynomolgus M-CSF' is printed (ELISA result, SET); also called cynomolgus sgM-CSF; cyno sgM-CSF
# T1 chain: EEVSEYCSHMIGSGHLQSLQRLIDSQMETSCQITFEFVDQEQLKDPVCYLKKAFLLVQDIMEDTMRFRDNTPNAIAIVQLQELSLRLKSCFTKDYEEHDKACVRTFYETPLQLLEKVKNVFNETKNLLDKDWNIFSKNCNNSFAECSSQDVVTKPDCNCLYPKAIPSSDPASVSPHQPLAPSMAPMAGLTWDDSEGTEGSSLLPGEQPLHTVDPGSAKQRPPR
# assay.procedure: MSD receptor binding inhibition: 12.5 pM cynomolgus sgM-CSF preincubated with antibody, binding to coated human CSF1-R-Fc
So I've got a bunch of binders here, and I need their IC50 values.
Dear colleague, please return just the value in pM, with no unit written.

Given the entry Maelle, IgG1_D265A (antibody, V domains shown, tested as IgG1 with D265A in the Fc (EU index)) VH: QVQLQQSGPGLVKPSQTLSLTCAISGESVSTSSAAWNWIRQSPSRGLEWLGRTYYRSKWKKEYAQSVKSRITINPDTSKNQFSLQLNSVTPEDTAVYYCARDRYYYSAFDYWGQGTLVTVSS VL: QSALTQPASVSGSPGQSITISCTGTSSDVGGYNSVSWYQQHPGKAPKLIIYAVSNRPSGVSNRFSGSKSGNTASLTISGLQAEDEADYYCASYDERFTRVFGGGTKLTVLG , report its measured IC50.
6.4

What about Celine, IgG1_D265A (antibody, V domains shown, tested as IgG1 with D265A in the Fc (EU index)) VH: QVQLQQSGPGLVKPSQTLSLTCAISGDSVSTSSAAWNWIRQSPSRGLEWLGRTYYRSKWKHEYAVSVKSRITINPDTSKNQFSLQLNSVTPEDTAVYYCARDRYYYSAFDYWGQGTLVTVSS VL: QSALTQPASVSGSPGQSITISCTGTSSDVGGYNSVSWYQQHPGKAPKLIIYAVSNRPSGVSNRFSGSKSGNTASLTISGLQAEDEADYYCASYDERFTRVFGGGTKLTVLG ?
6.9

Follow-up item: Satine, IgG1_D265A (antibody, V domains shown, tested as IgG1 with D265A in the Fc (EU index)) VH: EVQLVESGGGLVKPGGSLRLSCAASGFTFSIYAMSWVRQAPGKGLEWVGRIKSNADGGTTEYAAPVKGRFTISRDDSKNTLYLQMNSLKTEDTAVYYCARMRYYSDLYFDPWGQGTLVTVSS VL: SYELTQPPSVSVSPGQTASITCSGDKLGQKYVSWYQQKPGQSPVLVISQDRKRPSGIPERFSGSNSGNTATLTISGTQAEDEADYYCQTWTHLQWVFGGGTKLTVLG
13.5

Okay, and Romaine, IgG1_D265A (antibody, V domains shown, tested as IgG1 with D265A in the Fc (EU index); Parental antibody of Satine, Servane) VH: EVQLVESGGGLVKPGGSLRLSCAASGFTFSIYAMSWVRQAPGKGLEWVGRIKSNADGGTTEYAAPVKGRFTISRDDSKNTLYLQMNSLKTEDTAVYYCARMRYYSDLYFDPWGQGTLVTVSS VL: DIELTQPPSVSVSPGQTASITCSGDAIGSKYVHWYQQKPGQAPVLVISKDNKRPSGIPERFSGSNSGNTATLTISGTQAEDEADYYCQTATVSSYWWVFGGGTKLTVLG ?
9.1

Okay, and Blanche, IgG1_D265A (antibody, V domains shown, tested as IgG1 with D265A in the Fc (EU index); Parental antibody of Caline, Camille, Celine) VH: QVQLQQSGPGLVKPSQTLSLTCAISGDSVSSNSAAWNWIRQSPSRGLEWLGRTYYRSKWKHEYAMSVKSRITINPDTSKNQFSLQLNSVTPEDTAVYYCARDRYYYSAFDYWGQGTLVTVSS VL: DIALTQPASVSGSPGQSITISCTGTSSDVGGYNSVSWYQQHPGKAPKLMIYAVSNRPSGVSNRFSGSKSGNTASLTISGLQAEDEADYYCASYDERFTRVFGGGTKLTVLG ?
6.6

These measurements were taken from patent US20180057581A1.
